Values from ChEMBL document CHEMBL2029214

- assay.target: Alpha-1A adrenergic receptor (Homo sapiens, UniProt P35348)
- test: Binding affinity to human recombinant alpha1A adrenergic receptor
Listed next: entries and their corresponding Ki.
reported.endpoint: Ki

structure.smiles	reported.endpoint	value.observed
C[C@@H]1CCCN1CCc1cc2cc(C(=O)c3ccc(F)cc3)ccc2o1	Ki	> 10 µM
C[C@@H]1CCCN1CCc1cc2cc(C(=O)c3ccc([N+](=O)[O-])cc3)ccc2o1	Ki	> 10 µM

---

- test: Metabolic stability in monkey whole blood assessed as compound remaining after 2.5 hrs by radio-HPLC
- Format: ADME, tissue-based, Macaca mulatta
- condition: rhesus monkey, read-out: Stability

structure.smiles	remaining at 2.5 h, %
C[C@@H]1CCCN1CCc1cc2cc(C(=O)c3ccc([18F])cc3)ccc2o1	98.4

---

- assay.target: Sigma non-opioid intracellular receptor 1 (Homo sapiens, UniProt Q99720)
- Sequence (Q99720 whole entry): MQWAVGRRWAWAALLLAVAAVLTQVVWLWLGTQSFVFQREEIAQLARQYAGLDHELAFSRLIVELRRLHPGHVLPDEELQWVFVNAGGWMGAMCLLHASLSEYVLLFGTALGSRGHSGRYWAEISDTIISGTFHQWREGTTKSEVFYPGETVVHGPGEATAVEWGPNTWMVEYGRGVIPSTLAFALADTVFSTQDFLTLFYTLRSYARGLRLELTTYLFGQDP
- test: Binding affinity to human recombinant sigma1 receptor

structure.smiles	assay.target	Ki
C[C@@H]1CCCN1CCc1cc2cc(C(=O)c3ccc(F)cc3)ccc2o1	Sigma non-opioid intracellular receptor 1 (Homo sapiens, UniProt Q99720)	> 10 µM
C[C@@H]1CCCN1CCc1cc2cc(C(=O)c3ccc([N+](=O)[O-])cc3)ccc2o1	Sigma non-opioid intracellular receptor 1 (Homo sapiens, UniProt Q99720)	> 10 µM

---

- test: Unbound fraction in rhesus monkey plasma at 3.91+/-0.46 mCi, iv by ultrafiltration
- Assay type: ADME, organism-based, Macaca mulatta

structure.smiles	fraction unbound
C[C@@H]1CCCN1CCc1cc2cc(C(=O)c3ccc([18F])cc3)ccc2o1	0.0208

---

- assay.target: 5-hydroxytryptamine receptor 1D (Homo sapiens)
- Sequence (P28221 whole entry): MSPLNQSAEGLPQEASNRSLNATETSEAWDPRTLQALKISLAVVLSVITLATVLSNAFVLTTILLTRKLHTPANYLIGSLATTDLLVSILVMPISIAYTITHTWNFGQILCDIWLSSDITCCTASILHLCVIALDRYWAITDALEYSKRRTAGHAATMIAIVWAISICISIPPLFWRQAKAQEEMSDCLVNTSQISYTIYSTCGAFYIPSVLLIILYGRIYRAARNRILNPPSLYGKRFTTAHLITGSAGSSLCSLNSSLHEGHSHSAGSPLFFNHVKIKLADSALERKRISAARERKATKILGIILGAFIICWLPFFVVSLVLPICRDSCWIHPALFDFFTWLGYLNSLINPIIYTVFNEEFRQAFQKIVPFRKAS
- test: Binding affinity to human recombinant 5HT1D receptor

structure.smiles	readout.unit	Ki
C[C@@H]1CCCN1CCc1cc2cc(C(=O)c3ccc(F)cc3)ccc2o1	µM	6.38
C[C@@H]1CCCN1CCc1cc2cc(C(=O)c3ccc([N+](=O)[O-])cc3)ccc2o1	µM	5.24

---

Listed next: entries and their corresponding Ki.
- assay.target: Muscarinic acetylcholine receptor M3 (Homo sapiens)
- Sequence (P20309 whole entry): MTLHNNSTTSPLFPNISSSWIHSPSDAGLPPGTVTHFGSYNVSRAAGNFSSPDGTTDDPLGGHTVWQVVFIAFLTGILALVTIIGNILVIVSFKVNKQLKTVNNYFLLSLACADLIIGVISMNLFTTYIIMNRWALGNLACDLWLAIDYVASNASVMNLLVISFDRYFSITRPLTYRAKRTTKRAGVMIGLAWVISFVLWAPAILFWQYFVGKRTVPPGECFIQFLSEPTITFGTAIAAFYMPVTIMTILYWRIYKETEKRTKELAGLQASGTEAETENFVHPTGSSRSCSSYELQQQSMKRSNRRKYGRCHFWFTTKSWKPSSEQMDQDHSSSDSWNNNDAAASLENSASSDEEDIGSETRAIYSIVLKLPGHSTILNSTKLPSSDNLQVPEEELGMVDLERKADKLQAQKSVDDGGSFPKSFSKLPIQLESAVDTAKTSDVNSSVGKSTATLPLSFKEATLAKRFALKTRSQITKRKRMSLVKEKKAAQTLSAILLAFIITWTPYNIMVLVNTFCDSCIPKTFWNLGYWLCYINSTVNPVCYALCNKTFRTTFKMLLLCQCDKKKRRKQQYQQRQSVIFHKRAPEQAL
- test: Binding affinity to human recombinant M3 receptor
reported.endpoint: Ki (nM)

structure.smiles	assay.target	reported.endpoint	value.observed
C[C@@H]1CCCN1CCc1cc2cc(C(=O)c3ccc([N+](=O)[O-])cc3)ccc2o1	Muscarinic acetylcholine receptor M3 (Homo sapiens)	Ki	512
C[C@@H]1CCCN1CCc1cc2cc(C(=O)c3ccc(F)cc3)ccc2o1	Muscarinic acetylcholine receptor M3 (Homo sapiens)	Ki	204

---

- assay.target: Alpha-1D adrenergic receptor (Homo sapiens, UniProt P25100)
- test: Binding affinity to human recombinant alpha1D adrenergic receptor
pKi: −log10 of the molar value.
reported.endpoint: pKi

structure.smiles	value.observed
C[C@@H]1CCCN1CCc1cc2cc(C(=O)c3ccc(F)cc3)ccc2o1	< 5.00
C[C@@H]1CCCN1CCc1cc2cc(C(=O)c3ccc([N+](=O)[O-])cc3)ccc2o1	< 5.00

---

- assay.target: Histamine H3 receptor (Homo sapiens, UniProt Q9Y5N1)
- Sequence (Q9Y5N1 whole entry): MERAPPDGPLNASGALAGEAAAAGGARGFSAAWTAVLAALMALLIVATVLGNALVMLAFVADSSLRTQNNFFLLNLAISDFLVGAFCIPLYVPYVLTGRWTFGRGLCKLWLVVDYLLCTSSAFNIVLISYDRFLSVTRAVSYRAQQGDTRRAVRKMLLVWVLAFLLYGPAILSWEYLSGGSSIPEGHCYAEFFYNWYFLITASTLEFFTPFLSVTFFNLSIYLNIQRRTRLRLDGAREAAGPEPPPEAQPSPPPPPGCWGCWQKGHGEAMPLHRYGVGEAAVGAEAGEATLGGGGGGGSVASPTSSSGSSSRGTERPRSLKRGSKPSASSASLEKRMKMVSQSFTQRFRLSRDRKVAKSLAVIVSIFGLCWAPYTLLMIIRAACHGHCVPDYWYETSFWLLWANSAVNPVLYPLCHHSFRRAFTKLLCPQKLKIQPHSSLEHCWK
- test: Binding affinity to human recombinant H3 receptor expressed in HEK293T cells
reported.endpoint: Ki

structure.smiles	value.observed
C[C@@H]1CCCN1CCc1cc2cc(C(=O)c3ccc([N+](=O)[O-])cc3)ccc2o1	0.4 nM

---

- assay.target: UniProtKB P28222
- Sequence (P28222 whole entry): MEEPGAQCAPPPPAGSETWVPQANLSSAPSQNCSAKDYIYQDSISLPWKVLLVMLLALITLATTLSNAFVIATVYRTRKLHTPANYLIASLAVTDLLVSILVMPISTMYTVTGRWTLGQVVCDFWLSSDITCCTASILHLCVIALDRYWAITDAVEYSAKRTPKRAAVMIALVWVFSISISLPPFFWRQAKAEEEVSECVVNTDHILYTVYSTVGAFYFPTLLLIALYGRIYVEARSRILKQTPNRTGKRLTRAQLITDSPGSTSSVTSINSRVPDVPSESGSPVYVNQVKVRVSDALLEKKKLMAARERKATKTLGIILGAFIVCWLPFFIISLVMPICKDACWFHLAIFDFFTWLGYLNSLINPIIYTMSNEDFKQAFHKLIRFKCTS
- test: Binding affinity to human recombinant 5HT1B receptor
pKi: −log10 of the molar value.
Listed next: entries and their corresponding pKi.

structure.smiles	pKi
C[C@@H]1CCCN1CCc1cc2cc(C(=O)c3ccc([N+](=O)[O-])cc3)ccc2o1	< 5.00
C[C@@H]1CCCN1CCc1cc2cc(C(=O)c3ccc(F)cc3)ccc2o1	< 5.00

---

- assay.target: Sodium-dependent dopamine transporter (Homo sapiens)
- Sequence (Q01959 whole entry): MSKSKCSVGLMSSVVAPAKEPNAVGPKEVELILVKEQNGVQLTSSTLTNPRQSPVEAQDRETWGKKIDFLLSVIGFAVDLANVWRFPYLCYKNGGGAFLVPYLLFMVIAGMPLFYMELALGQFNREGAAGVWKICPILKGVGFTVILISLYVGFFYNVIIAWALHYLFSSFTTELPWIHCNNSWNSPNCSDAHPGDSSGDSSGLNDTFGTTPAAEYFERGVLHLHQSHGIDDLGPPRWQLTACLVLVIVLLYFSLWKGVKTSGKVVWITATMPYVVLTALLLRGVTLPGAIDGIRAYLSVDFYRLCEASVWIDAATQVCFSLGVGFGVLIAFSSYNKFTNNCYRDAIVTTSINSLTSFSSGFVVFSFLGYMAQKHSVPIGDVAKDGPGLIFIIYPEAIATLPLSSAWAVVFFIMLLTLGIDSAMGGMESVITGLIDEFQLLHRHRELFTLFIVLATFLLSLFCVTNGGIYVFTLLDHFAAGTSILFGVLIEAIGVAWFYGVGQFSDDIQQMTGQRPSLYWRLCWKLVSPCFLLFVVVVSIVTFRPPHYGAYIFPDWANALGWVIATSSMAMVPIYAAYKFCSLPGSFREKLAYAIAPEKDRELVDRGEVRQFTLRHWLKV
- test: Binding affinity to human recombinant DAT
reported.endpoint: Ki (nM)

structure.smiles	readout.unit	qualifying.sign	value.observed
C[C@@H]1CCCN1CCc1cc2cc(C(=O)c3ccc(F)cc3)ccc2o1	nM	>	10000
C[C@@H]1CCCN1CCc1cc2cc(C(=O)c3ccc([N+](=O)[O-])cc3)ccc2o1	nM	=	137

---

- assay.target: 5-hydroxytryptamine receptor 1E (Homo sapiens)
- Sequence (P28566 whole entry): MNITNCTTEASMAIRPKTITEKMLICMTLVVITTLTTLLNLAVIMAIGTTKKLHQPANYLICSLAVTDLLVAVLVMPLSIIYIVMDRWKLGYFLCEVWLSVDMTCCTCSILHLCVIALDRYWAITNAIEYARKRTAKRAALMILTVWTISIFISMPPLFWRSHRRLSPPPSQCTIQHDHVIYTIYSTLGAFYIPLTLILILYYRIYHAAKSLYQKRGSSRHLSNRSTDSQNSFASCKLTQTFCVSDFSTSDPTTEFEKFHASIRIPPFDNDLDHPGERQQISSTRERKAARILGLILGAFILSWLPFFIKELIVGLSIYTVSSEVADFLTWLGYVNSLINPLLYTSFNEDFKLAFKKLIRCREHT
- test: Binding affinity to human recombinant 5HT1E receptor

structure.smiles	Ki
C[C@@H]1CCCN1CCc1cc2cc(C(=O)c3ccc([N+](=O)[O-])cc3)ccc2o1	> 10 µM
C[C@@H]1CCCN1CCc1cc2cc(C(=O)c3ccc(F)cc3)ccc2o1	> 10 µM

---

- test: Unbound fraction in rhesus monkey plasma at 3.91+/-0.46 mCi, iv administered 30 mins post-(R)-(4-fluorophenyl)(2-(2-(2-methylpyrrolidin-1-yl)ethyl)benzofuran-5-yl)methanone treatment by ultrafiltration
- Type: ADME, organism-based, Macaca mulatta

structure.smiles	fraction unbound at 0.5 h
C[C@@H]1CCCN1CCc1cc2cc(C(=O)c3ccc([18F])cc3)ccc2o1	0.014

---

Listed next: entries and their corresponding pKi.
- assay.target: Beta-1 adrenergic receptor (Homo sapiens, UniProt P08588)
- test: Binding affinity to human recombinant beta1 adrenergic receptor
pKi: −log10 of the molar value.
reported.endpoint: pKi

structure.smiles	assay.target	reported.endpoint	value.observed
C[C@@H]1CCCN1CCc1cc2cc(C(=O)c3ccc([N+](=O)[O-])cc3)ccc2o1	Beta-1 adrenergic receptor (Homo sapiens, UniProt P08588)	pKi	< 5.00
C[C@@H]1CCCN1CCc1cc2cc(C(=O)c3ccc(F)cc3)ccc2o1	Beta-1 adrenergic receptor (Homo sapiens, UniProt P08588)	pKi	< 5.00

---

Listed next: entries and their corresponding Ki.
- assay.target: 5-hydroxytryptamine receptor 2B (Homo sapiens, UniProt P41595)
- Sequence (P41595 whole entry): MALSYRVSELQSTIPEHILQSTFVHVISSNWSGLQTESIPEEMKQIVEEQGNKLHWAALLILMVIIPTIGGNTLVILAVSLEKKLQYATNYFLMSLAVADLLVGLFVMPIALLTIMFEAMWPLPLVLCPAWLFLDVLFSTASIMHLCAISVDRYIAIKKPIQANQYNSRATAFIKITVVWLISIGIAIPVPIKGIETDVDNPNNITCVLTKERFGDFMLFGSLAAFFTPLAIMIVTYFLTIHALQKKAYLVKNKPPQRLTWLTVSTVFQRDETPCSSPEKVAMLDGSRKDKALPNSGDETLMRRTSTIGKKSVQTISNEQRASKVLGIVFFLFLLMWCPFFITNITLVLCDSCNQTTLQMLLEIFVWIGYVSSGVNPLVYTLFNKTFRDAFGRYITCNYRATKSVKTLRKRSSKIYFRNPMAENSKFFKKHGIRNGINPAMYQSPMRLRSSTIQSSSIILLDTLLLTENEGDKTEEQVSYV
- test: Binding affinity to human recombinant 5HT2B receptor

structure.smiles	qualifying.sign	Ki, µM
C[C@@H]1CCCN1CCc1cc2cc(C(=O)c3ccc([N+](=O)[O-])cc3)ccc2o1	>	10
C[C@@H]1CCCN1CCc1cc2cc(C(=O)c3ccc(F)cc3)ccc2o1	=	3.15

---

- assay.target: Alpha-1B adrenergic receptor (Homo sapiens, UniProt P35368)
- Sequence (P35368 whole entry): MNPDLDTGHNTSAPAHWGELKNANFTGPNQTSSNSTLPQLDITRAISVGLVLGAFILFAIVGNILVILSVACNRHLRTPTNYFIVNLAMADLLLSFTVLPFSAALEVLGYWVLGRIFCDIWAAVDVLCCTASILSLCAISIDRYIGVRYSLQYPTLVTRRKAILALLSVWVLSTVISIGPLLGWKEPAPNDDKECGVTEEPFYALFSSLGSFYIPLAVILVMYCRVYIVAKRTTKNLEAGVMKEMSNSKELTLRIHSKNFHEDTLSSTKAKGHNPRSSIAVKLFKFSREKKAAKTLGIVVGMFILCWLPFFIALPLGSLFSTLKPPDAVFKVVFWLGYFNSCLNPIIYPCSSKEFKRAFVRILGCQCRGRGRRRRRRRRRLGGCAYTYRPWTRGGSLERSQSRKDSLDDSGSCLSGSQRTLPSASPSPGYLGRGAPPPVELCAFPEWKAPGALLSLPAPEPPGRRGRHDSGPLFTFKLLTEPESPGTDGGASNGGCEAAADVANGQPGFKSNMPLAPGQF
- test: Binding affinity to human recombinant alpha1B adrenergic receptor

structure.smiles	Ki
C[C@@H]1CCCN1CCc1cc2cc(C(=O)c3ccc(F)cc3)ccc2o1	> 10 µM
C[C@@H]1CCCN1CCc1cc2cc(C(=O)c3ccc([N+](=O)[O-])cc3)ccc2o1	> 10 µM

---

Listed next: entries and their corresponding Ki.
- assay.target: Muscarinic acetylcholine receptor M2 (Homo sapiens)
- test: Binding affinity to human recombinant M2 receptor

structure.smiles	assay.target	Ki [nM]
C[C@@H]1CCCN1CCc1cc2cc(C(=O)c3ccc([N+](=O)[O-])cc3)ccc2o1	Muscarinic acetylcholine receptor M2 (Homo sapiens)	681
C[C@@H]1CCCN1CCc1cc2cc(C(=O)c3ccc(F)cc3)ccc2o1	Muscarinic acetylcholine receptor M2 (Homo sapiens)	462

---

- assay.target: Alpha-2C adrenergic receptor (Homo sapiens, UniProt P18825)
- Sequence (P18825 whole entry): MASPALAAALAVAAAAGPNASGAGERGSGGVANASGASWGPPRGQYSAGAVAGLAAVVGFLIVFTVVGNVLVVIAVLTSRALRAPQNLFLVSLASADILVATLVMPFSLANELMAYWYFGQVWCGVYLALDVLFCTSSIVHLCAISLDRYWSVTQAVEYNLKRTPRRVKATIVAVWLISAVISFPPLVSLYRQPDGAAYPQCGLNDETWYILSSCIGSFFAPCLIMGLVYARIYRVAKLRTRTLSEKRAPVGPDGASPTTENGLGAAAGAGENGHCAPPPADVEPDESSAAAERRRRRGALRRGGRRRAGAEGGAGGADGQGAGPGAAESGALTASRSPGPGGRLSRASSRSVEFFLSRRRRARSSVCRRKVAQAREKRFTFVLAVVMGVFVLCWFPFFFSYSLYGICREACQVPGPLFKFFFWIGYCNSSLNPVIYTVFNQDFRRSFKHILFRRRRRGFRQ
- test: Binding affinity to human recombinant alpha2C adrenergic receptor
Listed next: entries and their corresponding Ki.

structure.smiles	Ki
C[C@@H]1CCCN1CCc1cc2cc(C(=O)c3ccc(F)cc3)ccc2o1	> 10 µM
C[C@@H]1CCCN1CCc1cc2cc(C(=O)c3ccc([N+](=O)[O-])cc3)ccc2o1	> 10 µM

---

Listed next: entries and their corresponding pKi.
- assay.target: Muscarinic acetylcholine receptor M1 (Homo sapiens)
- Sequence (P11229 whole entry): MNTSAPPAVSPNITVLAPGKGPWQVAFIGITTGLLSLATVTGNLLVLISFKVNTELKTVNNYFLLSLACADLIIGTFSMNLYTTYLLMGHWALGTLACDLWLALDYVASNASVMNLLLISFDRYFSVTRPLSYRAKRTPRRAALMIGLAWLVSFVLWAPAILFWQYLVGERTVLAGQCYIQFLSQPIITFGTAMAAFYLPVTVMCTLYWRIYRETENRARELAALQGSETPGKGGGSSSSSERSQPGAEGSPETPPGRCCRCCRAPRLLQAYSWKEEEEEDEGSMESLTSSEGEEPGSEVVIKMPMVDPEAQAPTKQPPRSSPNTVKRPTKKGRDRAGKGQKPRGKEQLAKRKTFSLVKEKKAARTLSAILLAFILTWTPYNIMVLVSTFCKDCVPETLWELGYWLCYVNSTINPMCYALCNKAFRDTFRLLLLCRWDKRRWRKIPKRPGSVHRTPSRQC
- test: Binding affinity to human recombinant M1 receptor
pKi: −log10 of the molar value.

structure.smiles	pKi
C[C@@H]1CCCN1CCc1cc2cc(C(=O)c3ccc(F)cc3)ccc2o1	5.49
C[C@@H]1CCCN1CCc1cc2cc(C(=O)c3ccc([N+](=O)[O-])cc3)ccc2o1	6.03

---

Listed next: entries and their corresponding pKi.
- assay.target: UniProt:P25021
- Sequence (P25021 whole entry): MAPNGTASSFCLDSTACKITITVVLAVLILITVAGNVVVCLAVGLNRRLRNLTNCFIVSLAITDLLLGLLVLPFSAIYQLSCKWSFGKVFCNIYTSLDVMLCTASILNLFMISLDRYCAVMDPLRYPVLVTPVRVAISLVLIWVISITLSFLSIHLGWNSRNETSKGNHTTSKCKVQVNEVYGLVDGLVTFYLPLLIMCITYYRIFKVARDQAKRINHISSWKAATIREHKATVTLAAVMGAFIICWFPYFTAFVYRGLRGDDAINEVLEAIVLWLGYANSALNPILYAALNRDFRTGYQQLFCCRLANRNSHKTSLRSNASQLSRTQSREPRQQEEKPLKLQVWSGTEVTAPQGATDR
- test: Binding affinity to human recombinant H2 receptor
pKi: −log10 of the molar value.

structure.smiles	pKi
C[C@@H]1CCCN1CCc1cc2cc(C(=O)c3ccc([N+](=O)[O-])cc3)ccc2o1	6.03
C[C@@H]1CCCN1CCc1cc2cc(C(=O)c3ccc(F)cc3)ccc2o1	5.77
